# Experimental setup: in sec-butanol, 308.15 K

{"columns": ["Query smiles", "solubility (mole fraction)"],
 "data": [
  ["Nc1nc(NC2CC2)c2ncn([C@H]3C=C[C@@H](CO)C3)c2n1", 0.015]
]}

---

# Experimental setup: in methanol, 288.15 K

{"columns": ["Query smiles", "solubility (mole fraction)"],
 "data": [
  ["Nc1nc(NC2CC2)c2ncn([C@H]3C=C[C@@H](CO)C3)c2n1", 0.00825]
]}

---

# Experimental setup: in n-propanol, 303.15 K

{"columns": ["Query smiles", "solubility (mole fraction)"],
 "data": [
  ["Nc1nc(NC2CC2)c2ncn([C@H]3C=C[C@@H](CO)C3)c2n1", 0.0136]
]}
